Tested on: MDA-MB-231
experiment: Cytotoxicity against human MDA-MB-231 cells assessed as cell survival at 50 uM after 48 hrs by Hoechst 33342 staining based assay relative to control
Format: functional
test-conditions: MDA-MB-231, 48 h, read-out: Survival
Threshold 40%. viability at 50 µM below it: yes. viability at 50 µM at it or above: no.

Query: Hi there! Is viability at 50 µM for COc1cc(OC)c(C(=O)/C=C/c2ccccc2)c(OC)c1 below 40%, do you know?
Response: yes

Query: Next compound: COc1cc(O)c(C(=O)/C=C/c2ccccc2)c(OC)c1
Response: yes

Query: Follow-up entry: COc1cc(OC)c(C(=O)/C=C/c2ccc(C(=O)O)cc2)c(OC)c1
Response: no

Query: Try the compound COc1cc(OC)c(C(=O)/C=C/c2ccc(F)cc2)c(OC)c1
Response: yes

Query: And COc1cc(O)c(C(=O)/C=C/c2ccc(Cl)cc2)c(OC)c1 ?
Response: no

Query: What would you report for COc1cc(O)c(C(=O)/C=C/c2ccc(Br)cc2)c(OC)c1 ?
Response: no

Query: How about this compound: COc1cc(O)c(C(=O)/C=C/c2ccc(F)cc2)c(OC)c1
Response: no

Query: Now consider COc1cc(O)c(C(=O)/C=C/c2ccc(N(C)C)cc2)c(OC)c1 .
Response: no

Query: Can you handle COc1cccc(/C=C/C(=O)c2c(O)cc(OC)cc2OC)c1 next?
Response: yes

Query: Likewise for COc1cc(O)c(C(=O)/C=C/c2ccc(C(=O)O)cc2)c(OC)c1 ?
Response: no

Query: // next record COc1cc(OC)c(C(=O)/C=C/c2ccccc2OC)c(OC)c1
Response: yes

Query: // repeat for COc1ccc(/C=C/C(=O)c2c(O)cc(OC)cc2OC)cc1 and report
Response: no

Query: Ok, now COc1cc(O)c(C(=O)/C=C/c2ccccc2OC)c(OC)c1
Response: yes

Query: Moving on to the next compound: COc1cccc(/C=C/C(=O)c2c(OC)cc(OC)cc2OC)c1
Response: yes

Query: What do we get for COc1cc(OC)c(C(=O)/C=C/c2ccc(Br)cc2)c(OC)c1 ?
Response: yes

Query: Would you mind doing COc1cc(OC)c(C(=O)/C=C/c2ccccc2SC)c(OC)c1 as well?
Response: yes

Query: What about COc1cc(OC)c(C(=O)/C=C/c2ccc(O)cc2)c(OC)c1 ?
Response: yes

###

System: PC-3
experiment: Cell cycle arrest in human PC3 cells harboring p53 mutant assessed as mitotic index at 25 uM measured after 48 hrs by Hoechst staining based fluorescence assay (reference value: 2.5)
Format: functional
Label Not satisfied if Activity_index falls below 0.3; label Satisfied in every other case.

Query: Reported Activity_index at or above 0.3? COc1cc(O)c(C(=O)/C=C/c2ccccc2OC)c(OC)c1
Response: Satisfied

Query: Same again, this time with COc1cc(OC)c(C(=O)/C=C/c2ccc(Br)cc2)c(OC)c1
Response: Not satisfied

Query: For COc1cc(O)c(C(=O)/C=C/c2ccccc2SC)c(OC)c1 then?
Response: Satisfied

Query: Repeat for the following molecule: COc1cc(O)c(C(=O)/C=C/c2ccccc2)c(OC)c1
Response: Satisfied

Query: Entry to check: COc1cc(OC)c(C(=O)/C=C/c2ccc(F)cc2)c(OC)c1
Response: Satisfied

Query: What do you have for COc1cc(O)c(C(=O)/C=C/c2ccc(F)cc2)c(OC)c1 ?
Response: Satisfied

Query: Also COc1cccc(/C=C/C(=O)c2c(O)cc(OC)cc2OC)c1 ?
Response: Satisfied

Query: Param item: Oc1cccc(-c2nc(N3CCOCC3)c3oc4ncccc4c3n2)c1
Response: Not satisfied

Query: And what about the molecule COc1cc(OC)c(C(=O)/C=C/c2ccccc2)c(OC)c1 ?
Response: Satisfied

The measured values listed here are drawn from ChEMBL document CHEMBL3992552.
